# credit: ChEMBL document CHEMBL4513216

# maps each entry to its cytotoxicity at 10 µM
# METHOD_SUMMARY: Toxicity liver stage against HepG2, at 10uM
# Assay type: cell-based
# Set-up: test concentration 10 uM, cell line HepG2-A16-CD81EGFP
# ASSAY_SETUP: human, HepG2-A16-CD81EGFP cells; read-out: INHIBITION
Give the number; % is assumed, so skip it.

{"COMPOUND": "CC1CCCCN1c1nc2c(c(=O)[nH]1)CCN(Cc1ccccc1O)C2 (configuration not stated)", "RECORDED_MEASUREMENT": -1.97}
{"COMPOUND": "COc1cc(CN(C)[C@@H]2COC[C@H]2c2ccc(F)cc2)cc(OC)c1", "RECORDED_MEASUREMENT": 7.67}
{"COMPOUND": "Cc1ccc(N2C[C@H](C(=O)N3CCOCC3)[C@@H]3CCO[C@@H]3C2)nn1", "RECORDED_MEASUREMENT": -66.8}

What value of cytotoxicity at 10 µM has been reported for the following compound? CCC(NC(=O)NCC(=O)NC(C)C)c1cc(F)ccc1F (configuration not stated)
0.447

One more compound: O=C(C1CC=CC1)N1C[C@@H]2[C@@H](C1)OCC(=O)N2Cc1cccnc1
2.45

And the next one, COc1ncc(C2(O)CCN(Cc3cc(F)ccc3F)CC2)c(OC)n1 ?
-16.1

Subsequent entry: CCC(CN1CCCC1)NC(=O)C1(c2cccc(F)c2)CC1 (configuration not stated)
-5.72

###

# METHOD_SUMMARY: Toxicity liver stage against HepG2, at 10uM
# Format: cell-based
# Parameters: test concentration 10 uM, cell line HepG2-A16-CD81EGFP
# ASSAY_SETUP: human, HepG2-A16-CD81EGFP cells; read-out: INHIBITION
Entries and their cytotoxicity at 10 µM
Enter your answer as a number in %; do not include the unit.

Entry COc1c(Br)cccc1CCNC(=O)c1csnn1 : reported cytotoxicity at 10 µM = ?
-2.5

###

# METHOD_SUMMARY: Toxicity liver stage against HepG2, at 10uM
# Assay type: cell-based
# Set-up: test concentration 10 uM, cell line HepG2-A16-CD81EGFP
# ASSAY_SETUP: human, HepG2-A16-CD81EGFP cells; read-out: INHIBITION
In this section, each of the compounds is paired with its reported cytotoxicity at 10 µM.

{"COMPOUND": "COCCN1CCCC(Cc2ccc(N3CCOCC3)nn2)C1 (stereo not given)", "RECORDED_MEASUREMENT": "-17.9%"}
{"COMPOUND": "COc1ccc(Cl)cc1C(=O)N1C[C@@H](NC(=O)N(C)C)[C@H](C(C)C)C1", "RECORDED_MEASUREMENT": "-1.41%"}
{"COMPOUND": "COc1cc(C)nc(N2CCN(C(=O)CCc3cscn3)CC2)n1", "RECORDED_MEASUREMENT": "-10.2%"}
{"COMPOUND": "c1ccc(CN2CCC3(CC2)CN(c2ccccn2)CCO3)nc1", "RECORDED_MEASUREMENT": "-6.38%"}
{"COMPOUND": "CCc1c(C)nn(CCNC(=O)Cc2csc(C)n2)c1C", "RECORDED_MEASUREMENT": "0.129%"}
{"COMPOUND": "CC(Cc1ccc(C(F)(F)F)cc1)C(=O)N1CCCS1(=O)=O (stereo not given)", "RECORDED_MEASUREMENT": "-1.01%"}
{"COMPOUND": "Cn1cc(-c2cnc(-c3ccnn3C)nc2)cc1C(=O)NC1CC1", "RECORDED_MEASUREMENT": "3.77%"}
{"COMPOUND": "O=C(Cn1ccc2ncccc2c1=O)N1CCSCC1", "RECORDED_MEASUREMENT": "-3.06%"}

Data request, read-out cytotoxicity at 10 µM, for CCN(C)CC1CCN(C(=O)Nc2ccc(-c3csnn3)cc2)C1 (stereo not given)
-2.15%

Try the compound O=C(NCc1cccnc1N1CCCCC1)c1ccc2c(c1)OCO2
-3.76%
